Listing of entries alongside the reported MBC.
Test system: Acinetobacter sp. (H064200250)
Assay Remarks: Preliminary MBC without and with sub-inhibitory polymyxin B (Example 4)
Type: cell-based
Test Settings: Acinetobacter, Acinetobacter spp. H064200250; without polymyxin B; preliminary MBC; 1st experiment; read-out: MBC without PB
Kindly answer with a numeric value in µg/mL, unit omitted.

Sample answers from the record:
[[record]]
chem_smiles = "Cc1c(-c2ccc(N)cc2)c(F)cn2c(=O)c(C(=O)O)cc(C3CC3)c12"
val = 4

[[record]]
chem_smiles = "Cc1c(-c2ccc(CN)cc2)ccn2c(=O)c(C(=O)O)cc(C3CC3)c12"
val = 8


## Task Quick check: MBC of Cc1c(-c2cc(Cl)c(N)c(Cl)c2)ccn2c(=O)c(C(=O)O)cc(C3CC3)c12 ?
## Result 8

Hey, just so you know, these numbers are from patent US10155021B2.
